- target.or.test.system: 5-HT2B receptor (Homo sapiens)
- Construct: host or cells: CHO-K1
- Sequence (P41595 whole entry): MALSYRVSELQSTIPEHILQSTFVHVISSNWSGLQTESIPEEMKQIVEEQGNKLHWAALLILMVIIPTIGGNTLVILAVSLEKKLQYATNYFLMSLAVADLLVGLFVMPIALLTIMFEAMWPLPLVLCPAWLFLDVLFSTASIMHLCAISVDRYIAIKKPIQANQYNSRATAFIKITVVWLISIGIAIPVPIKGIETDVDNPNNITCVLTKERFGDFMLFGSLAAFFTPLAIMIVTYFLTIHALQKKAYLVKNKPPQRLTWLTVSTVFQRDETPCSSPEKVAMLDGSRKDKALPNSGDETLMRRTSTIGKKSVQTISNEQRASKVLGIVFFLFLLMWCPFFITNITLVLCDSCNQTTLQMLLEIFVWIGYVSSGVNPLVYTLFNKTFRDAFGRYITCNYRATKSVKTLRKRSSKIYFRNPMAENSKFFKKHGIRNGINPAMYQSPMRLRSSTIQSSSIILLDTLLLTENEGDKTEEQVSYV
- test.method.notes: 5-HT2B receptor antagonism, inhibition of 5-HT stimulated IP-1 accumulation (HTRF) in CHO-K1 cells
- Type: cell-based
- measurement.conditions: 0.001 uM, % inhibition of 5-HT (5 nM) induced effect
// Not fulfilled strictly below 30% in inhibition at 0.001 µM; Fulfilled otherwise

Example results:
• C[C@@H]1CN(C(=N)NCc2ccccc2)N=C1c1cccc(Cl)c1O (single isomer, unassigned) = Fulfilled
• N=C(N)N1CCC(c2cccc3ccccc23)=N1 = Not fulfilled
• CC1CN(C(=N)N)N=C1c1ccccc1O.Cl (stereo not shown) = Fulfilled
• N=C(NCc1ccccc1)N1CCC(c2ccccc2O)=N1 = Not fulfilled

Form field: inhibition at 0.001 µM at least 30%? Entry: C[C@@H]1CN(C(=N)N)N=C1c1cccc(Cl)c1O (single isomer, unassigned) Fulfilled

Again, but for C[C@@H]1CN(C(=N)N)N=C1c1ccccc1O (single isomer, unassigned) Not fulfilled

Thanks! And `N=C(NCc1ccccc1)N1CCC(c2ccccc2Cl)=N1` ? Not fulfilled
